- EXPERIMENT: Inhibition of Haemophilus influenzae ATCC 51907 GlmU expressed in Escherichia coli BL21(DE3) incubated for 15 mins prior to MgCl2 addition measured after 30 mins by malachite green staining-based assay
READOUT: pIC50
Quick note: pIC50 values are minus log10 of concentrations in mol/L.

Value of pIC50 reported for the compound COc1cc2c(Nc3ccc(NC(=O)c4ccccc4)cc3)nc(C)nc2cc1O is 6.41

pIC50 measured on O=C(Nc1ccc(NC(=O)c2ccccn2)cc1)c1ccc(O)c([N+](=O)[O-])c1 = 7.30

The compound COc1cc2c(Nc3ccc(NC(=O)c4ccccc4)cc3)ncnc2cc1OCC(=O)O showed pIC50 equal to 5.49

Value of measured pIC50 for the entry COc1cc(C(=O)Nc2ccc(NC(=O)c3ccccn3)cc2)ccc1O : 6.29

The compound listed as O=C(Nc1ccc(NC(=O)c2ccccn2)cc1)c1cccc(-c2c[nH]c(=O)[nH]c2=O)c1 has a reported pIC50 of 8.30

Looking up COc1cc2c(Nc3ccc(NC(=O)c4ccccc4)cc3)nc(NCCCn3ccnc3)nc2cc1O , I found its pIC50 recorded as 5.95

The reported value for CCNC(=O)Nc1ccc(NC(=O)c2cc(OC)cc(-c3c[nH]c(=O)[nH]c3=O)c2)cc1 in terms of pIC50 is 7.11

Measured pIC50 of COc1cc2c(Nc3ccc(NC(=O)c4ccccc4)cc3)nc(N)nc2cc1O : 5.77

Value of measured pIC50 for the entry COc1cc2c(Nc3ccc(NC(=O)c4ccccc4)cc3)nc(Cl)nc2cc1O : 6.19

----------
- EXPERIMENT: Inhibition of Haemophilus influenzae ATCC 51907 GlmU expressed in Escherichia coli BL21(DE3) incubated for 15 mins prior to MgCl2 addition measured after 30 mins by malachite green staining-based assay
Record form. Attribute: IC50. Fill in for each entry.
The figure you give is taken to be in µM; do not add the unit.

// IC50 value for COc1cc2c(Nc3ccc(NC(=O)c4ccccc4)cc3)nc(Cc3ccccc3)nc2cc1O : 1.8

Value of IC50 reported for the molecule COc1cc(C(=O)Nc2ccc(NC(=O)C3CCCCN3)cc2)cc(-c2c[nH]c(=O)[nH]c2=O)c1 (centres undefined) is 0.05

Short answer for COc1cc2c(Nc3ccc(NC(=O)c4ccccc4)cc3)nc(-c3ccccn3)nc2cc1O : IC50 was 1.5

// field: IC50; key: COc1cc(C(=O)Nc2ccc(NC(=O)c3ccccn3)cc2)cc(-c2nc(=O)o[nH]2)c1 ; value = 1.7

Measured IC50 of COc1ccc(C(=O)Nc2ccc(NC(=O)c3ccccn3)cc2)cc1-c1c[nH]c(=O)[nH]c1=O : 0.95

Kindly note the recorded IC50 for COc1cc2c(Nc3ccc(NC(=O)c4ccccc4)cc3)nc(NCCc3ccccn3)nc2cc1O , which is 0.38

Looking up COc1cc(C(=O)Nc2ccc(NC(=O)c3ccccn3)cc2)cc(N2CCC(=O)NC2=O)c1 , I found its IC50 recorded as 0.071

Sample O=c1[nH]cc(-c2cccc([N+](=O)[O-])c2)c(=O)[nH]1 ; IC50 observed: 1950

----------
- EXPERIMENTAL SYSTEM: Cyclin-dependent kinase 1 (Homo sapiens, UniProt P06493)
- Sequence (P06493 whole entry): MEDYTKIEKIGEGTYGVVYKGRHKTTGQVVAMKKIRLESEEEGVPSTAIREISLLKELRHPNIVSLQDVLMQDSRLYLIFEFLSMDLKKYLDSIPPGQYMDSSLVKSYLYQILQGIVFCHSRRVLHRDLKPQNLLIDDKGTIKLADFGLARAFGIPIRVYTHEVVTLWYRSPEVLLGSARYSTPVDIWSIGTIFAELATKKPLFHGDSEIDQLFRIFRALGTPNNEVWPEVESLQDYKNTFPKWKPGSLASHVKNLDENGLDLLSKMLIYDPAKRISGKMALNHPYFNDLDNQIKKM
pIC50: −log10 of the molar value.
Provide the recorded pIC50 for the entries that follow.

// field: pIC50; key: COc1cc(C(=O)Nc2ccc(NC(=O)C3CCCCN3)cc2)cc(-c2c[nH]c(=O)[nH]c2=O)c1 (stereo not drawn) ; value = < 4.52

Field pIC50 (entry O=C(Nc1ccc(NC(=O)c2ccccn2)cc1)c1cccc(-c2c[nH]c(=O)[nH]c2=O)c1 ) reads < 4.52

Lab note: COc1cc(C(=O)Nc2ccc(NC(=O)c3ccccn3)cc2)cc(N2CCC(=O)NC2=O)c1 gave pIC50 of < 4.52

----------
- EXPERIMENTAL SYSTEM: Interleukin-1 receptor-associated kinase 1 (Homo sapiens)
- Sequence (P51617 whole entry): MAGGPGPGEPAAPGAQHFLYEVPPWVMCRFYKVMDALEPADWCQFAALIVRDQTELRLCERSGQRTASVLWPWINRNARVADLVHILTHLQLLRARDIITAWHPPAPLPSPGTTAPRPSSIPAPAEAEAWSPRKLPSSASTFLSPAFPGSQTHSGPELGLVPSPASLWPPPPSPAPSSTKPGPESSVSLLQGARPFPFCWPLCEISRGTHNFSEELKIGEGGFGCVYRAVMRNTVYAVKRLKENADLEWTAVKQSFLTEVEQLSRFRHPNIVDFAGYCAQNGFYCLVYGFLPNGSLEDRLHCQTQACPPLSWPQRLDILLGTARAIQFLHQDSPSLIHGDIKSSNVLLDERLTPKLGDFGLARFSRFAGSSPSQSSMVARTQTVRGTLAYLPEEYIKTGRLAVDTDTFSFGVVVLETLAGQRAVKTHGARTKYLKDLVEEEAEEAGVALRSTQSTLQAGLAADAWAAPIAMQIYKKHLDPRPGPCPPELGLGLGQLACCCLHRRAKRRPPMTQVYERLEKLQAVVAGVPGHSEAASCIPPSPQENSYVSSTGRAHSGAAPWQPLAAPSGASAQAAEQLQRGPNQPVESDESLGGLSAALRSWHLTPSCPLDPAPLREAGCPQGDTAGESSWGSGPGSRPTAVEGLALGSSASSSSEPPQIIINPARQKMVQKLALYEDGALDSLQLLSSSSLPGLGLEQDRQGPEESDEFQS
- EXPERIMENT: Inhibition of human IRAK1 incubated for 20 mins prior to MgCl2 addition measured after 90 mins by mobility shift assay
pIC50: −log10 of the molar value.
READOUT: pIC50

COc1ccc(C(=O)Nc2ccc(NC(=O)c3ccccn3)cc2)cc1-c1c[nH]c(=O)[nH]c1=O has a reported pIC50 of < 4.52

Entry COc1cc2c(Nc3ccc(NC(=O)c4ccccc4)cc3)ncnc2cc1OCC(=O)O ; pIC50 = < 4.52

pIC50 in this record for COc1cc2c(Nc3ccc(NC(=O)c4ccccc4)cc3)ncnc2cc1OCC(N)=O : < 4.52

Measured pIC50, COc1cc(C(=O)Nc2ccc(NC(=O)c3ccccc3)cc2)ccc1OCC(=O)O : < 4.52

----------
Reported pIC50 for target or system UniProtKB Q96GD4, by entry.
Sequence (Q96GD4 whole entry): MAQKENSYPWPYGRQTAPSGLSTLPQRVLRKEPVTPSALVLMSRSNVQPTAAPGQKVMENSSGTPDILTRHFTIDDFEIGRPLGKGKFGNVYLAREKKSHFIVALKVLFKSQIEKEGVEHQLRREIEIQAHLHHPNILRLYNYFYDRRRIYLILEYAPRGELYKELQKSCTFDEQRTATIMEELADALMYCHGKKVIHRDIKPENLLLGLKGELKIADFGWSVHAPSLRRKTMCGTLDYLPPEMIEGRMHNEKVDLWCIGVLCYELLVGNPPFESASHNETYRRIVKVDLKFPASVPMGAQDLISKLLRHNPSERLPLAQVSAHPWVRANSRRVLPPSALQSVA
The read-out pIC50 is expressed as -log10 of concentration in moles per litre.

Considering COc1cc2c(Nc3ccc(NC(=O)c4ccccc4)cc3)ncnc2cc1OCC(=O)O , its pIC50 with UniProtKB Q96GD4 was recorded as 6.16

Known value: UniProtKB Q96GD4 pIC50 of the compound COc1cc2c(Nc3ccc(NC(=O)c4ccccc4)cc3)ncnc2cc1OCC(N)=O equals 6.81

Form field pIC50 for item CCNC(=O)Nc1ccc(NC(=O)c2cc(OC)cc(-c3c[nH]c(=O)[nH]c3=O)c2)cc1 on UniProtKB Q96GD4: 4.74

// assay UniProtKB Q96GD4, entry COc1cc2c(Nc3ccc(NC(=O)c4ccccc4)cc3)ncnc2cc1OCCO , pIC50 value = 7.56

----------
- EXPERIMENT: Serum protein binding in human at 10 uM after 30 mins by ultrafiltration method
- Format: ADME
- CONDITIONS: read-out: PB (converted)
READOUT: fraction unbound at 0.5 h, 10 µM

In plain terms, O=C(Nc1ccc(NC(=O)c2ccccn2)cc1)c1ccc(O)c([N+](=O)[O-])c1 has a documented fraction unbound at 0.5 h, 10 µM of < 0.01

Summary for this molecule, COc1cc2c(Nc3ccc(NC(=O)c4ccccc4)cc3)ncnc2cc1OCC(=O)O : fraction unbound at 0.5 h, 10 µM is < 0.01

Value of measured fraction unbound at 0.5 h, 10 µM for the entry CCNC(=O)Nc1ccc(NC(=O)c2cc(OC)cc(-c3c[nH]c(=O)[nH]c3=O)c2)cc1 : 0.159

# fraction unbound at 0.5 h, 10 µM of COc1cc(C(=O)Nc2ccc(NC(=O)c3ccccc3)cc2)ccc1O = < 0.01

Lab book: fraction unbound at 0.5 h, 10 µM of COc1cc(C(=O)Nc2ccc(NC(=O)c3ccccn3)cc2)cc(-c2nc(=O)o[nH]2)c1 noted as 0.016

----------
- EXPERIMENT: Inhibition of Haemophilus influenzae ATCC 51907 GlmU expressed in Escherichia coli BL21(DE3) incubated for 15 mins prior to MgCl2 addition measured after 30 mins by malachite green staining-based assay
READOUT: log10 of IC50 (log10 of the value in nM)
Kindly note that the scale is log10 and the underlying IC50 is in nM.

log10 of IC50 for COc1cc(C(=O)Nc2ccc(NC(=O)c3ccccc3)cc2)c(N)cc1O is 3.79

Just so you know, measured log10 of IC50 for COc1cc(C(=O)Nc2ccc(NC(=O)c3ccccc3)cc2)ccc1OCC(=O)O came out at 4.36

GET /value?item= O=c1[nH]cc(-c2cccc(Br)c2)c(=O)[nH]1 &field=log10 of IC50 returns 4.70

Form field log10 of IC50, entry COc1cc(C(=O)Nc2ccc(NC(=O)c3ccccn3)cc2)cc(-c2nn[nH]n2)c1 : 2.74

log10 of IC50 reading for COc1cc(C(=O)Nc2ccc(NC(=O)c3ccccn3)cc2)cc(-c2cnc(=O)[nH]c2)c1 : 2.99

The molecule listed as COc1cc(C(=O)Nc2ccc(NC(=O)c3ccccn3)cc2)cc(-c2c[nH]c(=O)[nH]c2=O)c1 has a reported log10 of IC50 of 0.23

What the record says about COc1cc(C(=O)Nc2ccc(NC(=O)c3ccccc3)cc2)ccc1O : log10 of IC50 is 3.15

Lab note: measured log10 of IC50 of COc1cc(C(=O)Nc2ccc(NC(=O)c3ccccc3)cc2)cc(-c2c[nH]c(=O)[nH]c2=O)c1O was 1.30

Entry COc1cc2c(Nc3ccc(NC(=O)c4ccccc4)cc3)ncnc2cc1O ; log10 of IC50 = 2.41

Record summary for COc1cc2c(Nc3ccc(NC(=O)c4ccccc4)cc3)ncnc2cc1OCCO : reported log10 of IC50 = 4.28

----------
Can you tell me fraction unbound at 0.5 h, 10 µM for the items I'm about to list?
- EXPERIMENT: Serum protein binding in human at 10 uM after 30 mins by ultrafiltration method
- Assay type: ADME
- CONDITIONS: read-out: PB (converted)

According to the records, this molecule COc1cc2c(Nc3ccc(NC(=O)c4ccccc4)cc3)nc(C)nc2cc1O displays fraction unbound at 0.5 h, 10 µM of 0.097

The recorded fraction unbound at 0.5 h, 10 µM for entry COc1cc(C(=O)Nc2ccc(NC(=O)c3ccccn3)cc2)ccc1O equals 0.016

Reported fraction unbound at 0.5 h, 10 µM of COc1cc(C(=O)Nc2ccc(NC(=O)c3ccccc3)cc2)cc(-c2c[nH]c(=O)[nH]c2=O)c1O : 0.019

Recorded fraction unbound at 0.5 h, 10 µM (molecule O=C(Nc1ccc(NC(=O)c2ccccn2)cc1)c1cccc(-c2c[nH]c(=O)[nH]c2=O)c1 ): 0.019

Looking up COc1cc(C(=O)Nc2ccc(NC(=O)c3ccccn3)cc2)cc(N2CCC(=O)NC2=O)c1 , I found its fraction unbound at 0.5 h, 10 µM recorded as 0.097

Consider COc1cc(C(=O)Nc2ccc(NC(=O)c3ccccc3)cc2)c(N)cc1O . Its measured fraction unbound at 0.5 h, 10 µM is 0.011

fraction unbound at 0.5 h, 10 µM in this record for COc1ccc(C(=O)Nc2ccc(NC(=O)c3ccccn3)cc2)cc1-c1c[nH]c(=O)[nH]c1=O : < 0.01

Provenance of the data: ChEMBL document CHEMBL3351874
